test: yeast display, Sf9 membrane polyspecificity reagent, FACS + sequencing; frameworks hold sequencing errors
experimentalReadout: polyreactivity (PSR sort gate)

sequencetext=QVQLVESGGGLVQAGGSLRLSCAASGYTFYLYAMGWYRQAPGKESELVAAISTNGGRTYYADSVKGRFTISRDNAKNTVYLQMNSLKPEDTAVYYCAVRSRGTAPQYYYWGQGTQVTVSS experimentalreadout="polyreactivity (PSR sort gate)" endpointvalue="high polyreactivity"
sequencetext=QVQLVESGGGLVQAGGSHRLSCAASGITFNVYAMGWYRQATGKERELVAAISYNGGRTYYADSVKGRFTISRDNAKNTVYLQMNSLKPEDTAVYYCNTVSLSLRYDYWGQGTQVTVSS experimentalreadout="polyreactivity (PSR sort gate)" endpointvalue="high polyreactivity"

###

experiment: yeast display, Sf9 membrane polyspecificity reagent, FACS + sequencing; frameworks hold sequencing errors
experimentalReadout: polyreactivity (PSR sort gate)

sequencetext=QVQLVESGGGLVQAGGSLRLSCAASGRTFLVYSMGWYIQAPGKERELVAAISFSDGITYYADSVKGRFTISRDNAKNTVYLQMNRLKPEDTAVYYCATEILDYYYGSEYDYWGQGTQVTVTS endpointvalue="high polyreactivity"
sequencetext=QVQLVESGGGLVQAGGSLRLSCAASGRIFVGYAMGWSRQAPGKERELVASITRSAGRTFYADSVKGRFTISRDNAKNTVYLQMNSLKPEDTAVYYCNARYWKGYNGYLRSTRRDDYWGQGTQVTVSS endpointvalue="high polyreactivity"
sequencetext=QVQLVESGGGLVQAGGSLRLTCAASGRTFFVYAMGWYRPAPGKERELVASITLSGGSTYYADSVKGRFTISRDNAKNTVYLQMNSLKPEDTAVYYCAKGWSRDNDREREDEYWGQGTQVTVSS endpointvalue="low polyreactivity"
sequencetext=QVQHVESGGGLVQAGGSLRLSCAASGRTLYRYAMGWSRQAPRKERELVAAIRSGGRTNYADSVKGRFTISRDNAKNTVYLQMNSLKPEDTAVYYCAARTLRYPSTFEYWGQGTQVTVSS endpointvalue="high polyreactivity"
sequencetext=QVQLVESGGGLVQAGGSLRLSCAASGFTFSRYAMGWYRQAPGTERELVAAITSRGGSTYYADSVKGRFTISRDNAKNTVYLQMNSLKPEDTAVYYCAASGRNRKDGLYEYYYWGQGTQVTVSS endpointvalue="high polyreactivity"
sequencetext=QVQLVESGGGLVQAGGSLRISCAASGSTFPYNAMGWYRQAPGKERELVATIDRGSTTNYADSVKGRFTISRDNAKNTVYLQMNSLKPEDTAVYYCAADANGYYNYDYWGQGTQVTVSS endpointvalue="low polyreactivity"
sequencetext=QVQLVESGGGLVQAGGSLRLSCAASGSIFSDNAMGWYRQAPGKERDLVAAISWIGDSTDYADSVKGRFTISRDNAKNTVYLQMNSLKPEDTAVYYCAADAKVVSPRYRANDIGMFYWGQGTQVTVSS endpointvalue="low polyreactivity"
sequencetext=QVQLVESGGGLVQAGGSLRLSCAASGRIFARNTMGWYRQAPGKERELVAAISWGGGRTYYADSVKGRFTISRDNAKNTVYLQMNSLKPEDTAVYYCAAETLQIPRGEYWGQGTQVNVSS endpointvalue="low polyreactivity"

Ask: Provide measured polyreactivity (PSR sort gate) value, entry: `QVQLVESGGGLVQAGGSLRLSCAASGFISLRNTMGWYRQAPGKERELVAAINWSGGSTYYADSVKGRFTISRDNAKNTVYLQMNSLKPEDTAVYYCAKGPWPPIYRLFPGYAKFGYWGQGTQVTVSS`
Result: low polyreactivity

Ask: Provide measured polyreactivity (PSR sort gate) value, entry: `QVQLVESGGGLVQAGGSLRLSCAASGYIFRVYAMGWYRQAPGKERELVAAISGSGGRTYYADSVKGRFTISRDNAKNTVSLQMNSLKPEDTAVYYCAAYRVSDYDYWGQGTQVTVSS`
Result: high polyreactivity

Ask: Provide measured polyreactivity (PSR sort gate) value, entry: `QVQLVESGGGLVQAGGSLRLSCAASGSIFYYAMGWYRQAPGKERELVAAISSGGRTNYADSVKGRFTISRDNAKNTVYLQMNSLKPEDTAVYYCAAVSPYGSQYGYWGQGTQVTVSS`
Result: high polyreactivity

Ask: Provide measured polyreactivity (PSR sort gate) value, entry: `QVQLVESGGGLVQAGGSLRLSCAASGRIFVDNTMGWYRPAPGKERELVAAISRRGTSTYYADSVKGRSTISRDNAKNTVYLQMNSLKPEDTAVYYCAADYYYYDSQQGMDYWGQGTQVTVSS`
Result: high polyreactivity

Ask: Provide measured polyreactivity (PSR sort gate) value, entry: `QVQLVDSGGGLVQAGGSLRLSCAASGSTYGLYAMGWYRQATGKERELVAAITWRASSTYYADSVKGRFTISRDNAKNTVFLQMNSLKPEDTAVYYCAATWYSRFSRGDYDYWGQGTQVTVSS`
Result: high polyreactivity

Ask: Provide measured polyreactivity (PSR sort gate) value, entry: `QVQLVESGGGLVQAGGSLRLSCAASGSTFISYAMGWYRPAPGKERELVAAISRNGGSTDYADSVKGRFTISRDNAKNSVYLQMNSLKPEHTAVYYCAAEYDTWWGGYDYWGQGTQVTVSS`
Result: high polyreactivity

Ask: Provide measured polyreactivity (PSR sort gate) value, entry: `QVQLVESGGGLVQAGGSLRLSCAASGRTFSYYAMGWYRQAPGKERELVAAISWRGGSTYYADSVKGRFTISRDNAKNTVYLQMNSLKPEDTAVYYCAALPRYALGEDYWGQGTQVTVSS`
Result: high polyreactivity

Ask: Provide measured polyreactivity (PSR sort gate) value, entry: `QVQLVESGGGLVQAGGSLRLICAASGRIFSLYAMGWYRQAPGKERELVAAITWSSGSTYYADSVKGRFTISRDNAKNTVYLQMNSLKPEDTAVYYCNAVWRTRDYDYWGQGTQVTVSS`
Result: low polyreactivity

###

assay: yeast display, Sf9 membrane polyspecificity reagent, FACS + sequencing; frameworks hold sequencing errors
experimentalReadout: polyreactivity (PSR sort gate)

Known polyreactivity (PSR sort gate) results, listed for orientation:
sequencetext=HVQLVESGGGLVQAGGSLRLSCAASGFIIADNAMGWDRQAPGKERELVAAISSSGGSTYYADSVKARFTISRDNAKNTVYLQMNSLKPVDTAVYYCAARTYHPRYVRPTFYYWGQGTQVTVSS endpointvalue="low polyreactivity"
sequencetext=QVQLVESGGGLVQAGGSLRLSCAASGLIFDTYAMGWYRQAPGKERELVADITWSGGSTYYADSVKGRFTISRDNAKNTVYLQMNSLKPEDTAVYYCAADSVSLFYWDQRYPDEYDYWGQGTQVTVSS endpointvalue="low polyreactivity"
sequencetext=QVQHVDSGGGLVQARGTLRLSCSASGRNFGIYTMGWYRQPPVKERELVAAISWRGGSTYYADSVKGRFTISRDNAKNTVYFQLNSLKPEDTAVYYCGKTQPGWRPVRDQIRYGYWGQGTQVTVSA endpointvalue="high polyreactivity"
sequencetext=QVQLVESGGGLVQAGGSLRLSCAASGSIFNSYAMGWSRQAPGKERELVAAISSGGGRTYYADSVKGRFTISRDNAKNTVYLQMNSLKPEDTAVYYCNARAVYRFDYWGQGTQVTVSS endpointvalue="high polyreactivity"

Shifting focus to the sequence that follows.
Ask: Provide measured polyreactivity (PSR sort gate) value, entry: `QVQLVESGGGLVQAGGSLRLSCAASGSIFITNAMGWYRQAPGKERELVAAISGRGGSTYSADSVKGRFTISRDNAKNTVYLQMNSLKPEDTAVYYCNAYSYRVSGYDYWGQGTQVTVSS`
Result: high polyreactivity

###

assay: yeast display, Sf9 membrane polyspecificity reagent, FACS + sequencing; frameworks hold sequencing errors
experimentalReadout: polyreactivity (PSR sort gate)

sequencetext=QVQLVESGGGLVQAGGSLCLSCAASGITFLFYAMGWYRQAPGKERELVAAITYSGGSTYYADSVKGRFTISRDNAKNTVYLQMNSLKPEDTAVYYCAADVWWSYYRYDYWGQGTQVTVSS experimentalreadout="polyreactivity (PSR sort gate)" endpointvalue="low polyreactivity"
sequencetext=QVQLVESGRGLVQAGGSLRLSCAASGIIFGSYAMGWYRQAPGKEMELVAAISRGTSTYYADSVKGRFTISRDNAKITVYLQMNSLNPEDTAVYYCAATRQEYGPHSRFVYVNYYYWGQGTQVTVSS experimentalreadout="polyreactivity (PSR sort gate)" endpointvalue="low polyreactivity"
sequencetext=QVQLVESGGGLVQAGGSLRLSCAASGGIFVSYAMGWYRQAPGKERELVAAITSGGGTSYADSVKGRFTISRDNAKNTVYLQLTSLKPEDTAVYYCAARFLWSVFGRKGGYWGQGTQVTVSS experimentalreadout="polyreactivity (PSR sort gate)" endpointvalue="low polyreactivity"

###

experiment: yeast display, Sf9 membrane polyspecificity reagent, FACS + sequencing; frameworks hold sequencing errors
experimentalReadout: polyreactivity (PSR sort gate)

Known polyreactivity (PSR sort gate) results, listed for orientation:
sequencetext=QVQLVESGGGLVQAGGSLRLSCAASGFIFHNYAMGWSRQAPGKERELVAAISWSGSRTYYADSVKGRFTISRDNAKNTVYLQMNSLKPEDTAVYYCNAPGSPVVQQPGYYWGQGTQVTVSS experimentalreadout="polyreactivity (PSR sort gate)" endpointvalue="low polyreactivity"
sequencetext=QVQLVESGGGLVQAGGSLRLSCAASGGTLDVYAMGWYRQAPGKEREFVAAISWSGGRTYYADSVKGRFTISRDNAKNTVYLQMHSLKPEDTAVYYCATRDRAGYYYWGQGTQVTVSS experimentalreadout="polyreactivity (PSR sort gate)" endpointvalue="high polyreactivity"
sequencetext=QVQLVESGGGLVQAGGSLRLSCAASGSTFAGYAMGWYRQAPGKERELVAAISRRGGSTYYADSVKGRFTISRDNAKNTVYLQMNSLKPEDTAVYYCNRDKYLRDPDYDYWGQGTQVTVSS experimentalreadout="polyreactivity (PSR sort gate)" endpointvalue="low polyreactivity"
sequencetext=QVQLVESGGGLVQAGGSLRLSCPASGRTFYLYAMGWYRQAPGKVRELVARISGGGGRTYYADSVKGRFTISRDNAKNTVYLQMNSLKPEDSAVYYCNAQSPRGFTTPRQVYPLNGYWGQGTQVTVSS experimentalreadout="polyreactivity (PSR sort gate)" endpointvalue="high polyreactivity"

Shifting focus to the sequence that follows.
Ask: Provide measured polyreactivity (PSR sort gate) value, entry: `QDQHVESGGGLVQAGGSLRLICAASGSIFIANAMGWYRQAPGKERELVAAITLNGGSTYYADSVKGRFTISRDNAKNTVYLQMNSLKPEDTAVYYCAADWVWVAPQYWFVEYDYWGQGTQVTVSS`
Result: low polyreactivity
